# Cytochrome P450 2C9 (Homo sapiens, UniProt P11712): AC50 values follow
# Sequence (P11712 whole entry): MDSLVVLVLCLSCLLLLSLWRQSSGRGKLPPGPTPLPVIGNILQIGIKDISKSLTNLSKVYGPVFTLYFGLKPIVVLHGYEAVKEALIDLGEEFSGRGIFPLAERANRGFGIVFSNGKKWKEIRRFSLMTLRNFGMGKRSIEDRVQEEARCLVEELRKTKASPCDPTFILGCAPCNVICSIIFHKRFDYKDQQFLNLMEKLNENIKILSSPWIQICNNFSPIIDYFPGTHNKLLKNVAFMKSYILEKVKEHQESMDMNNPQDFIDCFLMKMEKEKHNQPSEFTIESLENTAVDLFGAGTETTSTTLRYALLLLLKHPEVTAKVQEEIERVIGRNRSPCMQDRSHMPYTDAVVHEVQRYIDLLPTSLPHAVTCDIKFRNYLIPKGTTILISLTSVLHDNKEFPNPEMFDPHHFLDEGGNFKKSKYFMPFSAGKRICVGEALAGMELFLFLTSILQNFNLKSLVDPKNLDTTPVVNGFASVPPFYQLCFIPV

Examples with answers:
CCOc1nc(NCCc2ccc(OC)c(OC)c2)nc(NC(C)(C)CO)n1 = 31.6 µM (inconclusive)
Cn1c(-c2ccc(F)cc2)cnc1NCc1cccc(F)c1 = 39.8 µM (inconclusive)
CN(C)C(=O)c1ccc(-c2ccc3ncnc(N(C)C)c3c2)cc1 = 1.26 µM (inconclusive)
CCCC(=O)/N=C1\SC2CS(=O)(=O)CC2N1c1ccc(CC)cc1 (stereo not given) = 10 µM (inconclusive)
CC(=O)OCc1c(C(F)(F)F)nn(C)c1Sc1ccccc1 = 28.2 µM (inconclusive)
Nc1ccc(S(=O)(=O)c2ccc(NC(=O)c3cccnc3)cc2)cc1 = 6.31 µM (inconclusive)
CCc1ccc(N2C(=O)/C(=C/c3cccs3)N(CC(=O)OC)C2=S)cc1 = 12.6 µM (inconclusive)
COC(=O)c1nn(-c2cccc(C(F)(F)F)c2)c(=O)cc1Sc1ccccn1 = 3.98 µM (inconclusive)
Cc1ccc(-n2c3c(c(=O)[nH]c2=O)C(C(F)(F)F)(C(F)(F)F)NC(=O)N3)cc1 = 20 µM (inconclusive)
CCC(CC)C(=O)Nc1cccc(/C(C)=N\NC(=O)c2ccc(C)s2)c1 = 0.355 µM (inconclusive)

[Q] Please list AC50 recorded for the molecule `COC(=O)[C@@H]1CC[C@H](C)[C@@H](c2ccc(C)cc2)N1C(=O)c1ccc(/C=N\OCC[C@@H]2C=C[C@H](OC(C)=O)[C@H](COC(C)=O)O2)cc1`
[A] 3.98 µM (inconclusive)

[Q] Supply reported AC50 belonging to this molecule: `CC(C)(C)OC(=O)COc1cc(OCC(=O)OC(C)(C)C)c2c(=O)cc(-c3ccccc3)oc2c1`
[A] 2 µM (inconclusive)

[Q] Provide only the value of recorded AC50 for O=C(Nc1cccnc1)C1COc2ccccc2O1 (stereo not given)
[A] 5.01 µM (inconclusive)

[Q] Recall and state the measured AC50 for `O=C(CNC(=O)c1ccccc1)NCC(=O)OCc1ccc(Cl)cc1` .
[A] 0.1 µM (inconclusive)

[Q] Look up AC50 of `Cn1c(-c2ccc(Br)cc2)cnc1NCc1cccnc1` and report it.
[A] 15.8 µM (inconclusive)

[Q] Give the measured AC50 for `CC(=O)[C@@]1(O)CC[C@H]2[C@H]3C[C@@H](C)C4=CC(=O)C=C[C@]4(C)[C@@]3(F)[C@@H](O)C[C@]21C`
[A] 12.6 µM (inconclusive)

[Q] Provide measured AC50 value, entry: `O=C(Nc1cccc(F)c1)N1CCC2(CC1)CCN(C(=O)Oc1ccccc1)CC2`
[A] 39.8 µM (inconclusive)

[Q] Answer with reported AC50 of `Cc1nc2cnc(Nc3ccccc3)nc2n(C)c1=O`
[A] 20 µM (inconclusive)

[Q] Give the value of AC50 reported for the following: CCOc1ccc(C(C)=O)cc1N1C(=O)C2C(C1=O)C1C=CC2C12CC2 (stereo not given)
[A] 14.1 µM (inconclusive)

[Q] Name the recorded AC50 of the molecule listed here: `COc1ccc2[nH]cc(CCNc3ncnc4ccc(-c5ccoc5)cc34)c2c1`
[A] 0.398 µM (inconclusive)

* * *

- assayed_target: Aurora kinase B (Homo sapiens)
- Sequence (Q96GD4 whole entry): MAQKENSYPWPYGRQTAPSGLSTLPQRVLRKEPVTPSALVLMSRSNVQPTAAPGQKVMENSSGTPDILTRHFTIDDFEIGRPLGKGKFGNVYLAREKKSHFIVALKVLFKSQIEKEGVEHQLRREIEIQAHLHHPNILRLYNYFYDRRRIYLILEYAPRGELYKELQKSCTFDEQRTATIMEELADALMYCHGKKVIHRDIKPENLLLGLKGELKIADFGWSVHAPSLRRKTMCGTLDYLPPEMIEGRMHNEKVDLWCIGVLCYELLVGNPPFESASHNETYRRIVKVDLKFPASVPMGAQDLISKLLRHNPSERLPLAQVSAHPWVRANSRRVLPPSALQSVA
- Type: functional
The source made the active and inactive calls.
The reply should name one outcome from yes for active, no for inactive

Recorded results for 3 molecules are shown here.
COc1cccc(CNC(=O)c2cnc(-c3ccncc3)nc2)c1 = no
CN(C)C(=O)C=Cc1ccc(-c2ccc(NC(=O)Nc3cccc(C(F)(F)F)c3)cc2)c2c(N)n[nH]c12 = yes
NC(=O)c1cccc2nc(-c3ccc(-n4ccc(CN5CCCCC5)c4)cc3)[nH]c12 = yes

[Q] Kindly provide the recorded test outcome for the following molecule: OC1CCC(Nc2nc(Cl)cc(-c3c[nH]c4ncccc34)n2)CC1 (centres undefined)
[A] yes
